# test-parameters: in THF, 278.15 K
observable: solubility (mole fraction)
// print number alone

Query: Give me measured solubility (mole fraction), please, for this compound: `COc1cc(/C=C/C(=O)CC(=O)/C=C/c2ccc(O)c(OC)c2)ccc1O`
Response: 0.113

* * *

# test-parameters: in THF, 293.15 K
observable: solubility (mole fraction)

Query: State its solubility (mole fraction) for this molecule: `COc1cc(/C=C/C(=O)CC(=O)/C=C/c2ccc(O)c(OC)c2)ccc1O`
Response: 0.183

* * *

# test-parameters: in n-butanol, 283.15 K
observable: solubility (mole fraction)
Respond with the number and no other words.

Query: Consider the compound `COc1cc(/C=C/C(=O)CC(=O)/C=C/c2ccc(O)c(OC)c2)ccc1O` . State its measured solubility (mole fraction).
Response: 0.00057
